Test system: Staphylococcus aureus
test-description: Antimicrobial activity against multidrug-resistant Staphylococcus aureus isolate 1 after 18 to 24 hrs by broth microdilution method
Format: functional
# MIC values compiled below
measured-endpoint: MIC

molecule-smiles: CCCC(=O)N1CCN(c2cc3c(cc2F)c(=O)c(C(=O)O)cn3C2CC2)CC1
measured-endpoint: MIC
measured: 31.2 µM
--
molecule-smiles: O=C(CCCCCCCCCCC(=O)OCN1CCN(c2cc3c(cc2F)c(=O)c(C(=O)O)cn3C2CC2)CC1)OCN1CCN(c2cc3c(cc2F)c(=O)c(C(=O)O)cn3C2CC2)CC1
measured-endpoint: MIC
measured: 125 µM
--
molecule-smiles: O=C(O)c1cn(C2CC2)c2cc(N3CCN(C(=O)CO)CC3)c(F)cc2c1=O
measured-endpoint: MIC
measured: 125 µM
--
molecule-smiles: O=C(O)c1cn(C2CC2)c2cc(N3CCN(C(=O)Cc4ccccc4)CC3)c(F)cc2c1=O
measured-endpoint: MIC
measured: 31.2 µM
--
molecule-smiles: O=C(CCCCCCCCCCCCCC(=O)OCN1CCN(c2cc3c(cc2F)c(=O)c(C(=O)O)cn3C2CC2)CC1)OCN1CCN(c2cc3c(cc2F)c(=O)c(C(=O)O)cn3C2CC2)CC1
measured-endpoint: MIC
measured: 62.5 µM
--
molecule-smiles: O=C(O)c1cn(C2CC2)c2cc(N3CCN(C(=O)CCCCCCCCCCCCCC(=O)N4CCN(c5cc6c(cc5F)c(=O)c(C(=O)O)cn6C5CC5)CC4)CC3)c(F)cc2c1=O
measured-endpoint: MIC
measured: 1.9 µM
--
molecule-smiles: CCCCCCCC(=O)OCC(=O)N1CCN(c2cc3c(cc2F)c(=O)c(C(=O)O)cn3C2CC2)CC1
measured-endpoint: MIC
measured: 7.8 µM

###

Tested on: Escherichia coli
test-description: Antimicrobial activity against Escherichia coli CIP 53126 after 18 to 24 hrs by broth microdilution method
Assay type: functional
measured-endpoint: MBC (µM)

molecule-smiles: CC(C)(C)C(=O)N1CCN(c2cc3c(cc2F)c(=O)c(C(=O)O)cn3C2CC2)CC1
test-target: Escherichia coli
measured-endpoint: MBC
measurement-unit: µM
measured: 31.2

molecule-smiles: O=C(CCCCCCCCCCCCCCCCC(=O)OCN1CCN(c2cc3c(cc2F)c(=O)c(C(=O)O)cn3C2CC2)CC1)OCN1CCN(c2cc3c(cc2F)c(=O)c(C(=O)O)cn3C2CC2)CC1
test-target: Escherichia coli
measured-endpoint: MBC
measurement-unit: µM
measured: 31.2

molecule-smiles: CCCC(=O)OCC(=O)N1CCN(c2cc3c(cc2F)c(=O)c(C(=O)O)cn3C2CC2)CC1
test-target: Escherichia coli
measured-endpoint: MBC
measurement-unit: µM
measured: 31.2

###

# MBC per record follows
Test system: Staphylococcus aureus
test-description: Antimicrobial activity against Staphylococcus aureus CIP 4.83 after 18 to 24 hrs by broth microdilution method
Type: functional

molecule-smiles: O=C(CCCCCCCCCCC(=O)OCN1CCN(c2cc3c(cc2F)c(=O)c(C(=O)O)cn3C2CC2)CC1)OCN1CCN(c2cc3c(cc2F)c(=O)c(C(=O)O)cn3C2CC2)CC1
test-target: Staphylococcus aureus
MBC: ≤ 0.97 µM
//
molecule-smiles: CCCCCCC(=O)N1CCN(c2cc3c(cc2F)c(=O)c(C(=O)O)cn3C2CC2)CC1
test-target: Staphylococcus aureus
MBC: ≤ 0.12 µM
//
molecule-smiles: O=C(CCCCCCCCCCCCC(=O)OCN1CCN(c2cc3c(cc2F)c(=O)c(C(=O)O)cn3C2CC2)CC1)OCN1CCN(c2cc3c(cc2F)c(=O)c(C(=O)O)cn3C2CC2)CC1
test-target: Staphylococcus aureus
MBC: ≤ 0.97 µM
//
molecule-smiles: CCCCCCCCC(=O)OCC(=O)N1CCN(c2cc3c(cc2F)c(=O)c(C(=O)O)cn3C2CC2)CC1
test-target: Staphylococcus aureus
MBC: ≤ 0.12 µM
//
molecule-smiles: O=C(O)c1cn(C2CC2)c2cc(N3CCN(C(=O)Cc4ccccc4)CC3)c(F)cc2c1=O
test-target: Staphylococcus aureus
MBC: ≤ 0.24 µM
//
molecule-smiles: CCCC(=O)N1CCN(c2cc3c(cc2F)c(=O)c(C(=O)O)cn3C2CC2)CC1
test-target: Staphylococcus aureus
MBC: ≤ 0.48 µM
//
molecule-smiles: CCC(=O)N1CCN(c2cc3c(cc2F)c(=O)c(C(=O)O)cn3C2CC2)CC1
test-target: Staphylococcus aureus
MBC: ≤ 0.97 µM
//
molecule-smiles: CCCCCCCCCC(=O)OCOC(=O)c1cn2c3c(c(N4CCN(C)CC4)c(F)cc3c1=O)OC[C@@H]2C
test-target: Staphylococcus aureus
MBC: ≤ 0.97 µM
//
molecule-smiles: CCCCCC(=O)OCC(=O)N1CCN(c2cc3c(cc2F)c(=O)c(C(=O)O)cn3C2CC2)CC1
test-target: Staphylococcus aureus
MBC: ≤ 0.24 µM
//
molecule-smiles: CC(C)(C)OC(=O)N1CCN(c2cc3c(cc2F)c(=O)c(C(=O)O)cn3C2CC2)CC1
test-target: Staphylococcus aureus
MBC: ≤ 0.24 µM
